System: melanoma cells (A2185, A2352, A2024, A2058 and LOX-IMVI)
Assay: Dose-response analysis (IC50 assay), melanoma cells
Assay type: cell-based
Conditions: calculated by interpolation in the dose response curves
pIC50: −log10 of the molar value.
For each of the molecules below, state its pIC50.

Your task in this section: give pIC50 for each listed record.
1. O=S1(=O)C=CC2ON=C(c3ccc(C(F)(F)F)cc3)C21 (stereo not drawn) [Compound C17]
2. O=S1(=O)C=CC2ON=C(c3ccc(Cl)c(Cl)c3)C21 (stereo not drawn) [Compound D11]
3. O=S1(=O)C=CC2ON=C(c3cc(Cl)cc(Cl)c3)C21 (stereo not drawn) [Compound D3]

5.89 to 6.40
6.60 to 7.40
6.60 to 7.40
